The entries below pair molecules with pKi values for UniProt Q16790, as found in several publications.
pKi: −log10 of the molar value.
measurement kind: pKi

- chemical structure: "CCOc1ccc(S(=O)(=O)NCCN2CCOCC2)cc1-c1nnc2c(n1)c(C)nn2C"
  pKi: 7.40
- chemical structure: "NS(=O)(=O)c1ccc(Nc2nc(NCC(=O)O)nc(NCC(=O)O)n2)cc1"
  pKi: 8.08

(P) O=c1ccc2ccc(OCc3cn(-c4ccc(O)cc4)nn3)cc2o1
(Q) NS(=O)(=O)c1ccc(NC(=O)/C=C/c2ccc(Cl)cc2)cc1
Prompt line: Could you please tell me which of these two has the higher pKi: P or Q ? Please reply using the label of the selected record.
Response line: Q
(Q: 7.90, P: 7.57)

---

Collected Ki for Carbonic anhydrase 9 (Homo sapiens) across several studies; compounds listed below.
measurement kind: Ki (nM)

Reference set (5 entries):
- compound: "CC(=O)O[C@H]1[C@H](OC(C)=O)C(n2cc(-c3ccc(S(N)(=O)=O)cc3)nn2)OC[C@H]1OC(C)=O (single isomer, unassigned)"
  Ki / nM: 134
- compound: "O=C1c2ccccc2S(=O)(=O)N1Sc1ccccc1[N+](=O)[O-]"
  Ki / nM: 18
- compound: "NS(=O)(=O)c1ccc(CNC(=S)N[C@@H]2O[C@H](CO)[C@@H](O[C@@H]3O[C@H](CO)[C@H](O)[C@H](O)[C@H]3O)[C@H](O)[C@H]2O)cc1"
  Ki / nM: 8.3
- compound: "COc1ccc(C)cc1NC(=O)Nc1ccc2c(c1)B(O)OC2"
  Ki / nM: 414
- compound: "C=CCNc1ccc(S(N)(=O)=O)cc1"
  Ki / nM: 1400

(A) NS(=O)(=O)c1ccc(C(=O)N2CCC(O)(c3ccc(Br)cc3)CC2)cc1
(B) NS(=O)(=O)c1ccc2c(c1)C(=O)C(=O)N2Cc1cccc(F)c1
Prompt line: Recorded Ki values differ for A and B ; which one is higher? # answer = label of selected item
Response line: B

(P) COCCOc1ccc2c(c1)C(=O)CC1(CCN(c3ccc(S(N)(=O)=O)cc3[N+](=O)[O-])CC1)O2
(Q) NS(=O)(=O)c1ccc(NCc2cc(Cl)ccc2O)cc1
Prompt line: // compare measured Ki between P and Q ; output the lower one Choose, then provide that item's label.
Response line: Q
(Q: 2.4 nM, P: 4340 nM)

(P) CN(C)c1ccc(/C=N\CCc2ccc(S(N)(=O)=O)cc2)cc1
(Q) CSc1nn(CC(=O)Nc2nc3ccc(S(N)(=O)=O)cc3s2)c2nc[nH]c(=O)c12
(R) CC(=O)n1cc(/C=C2/N=C(c3ccccc3)N(c3ccc(S(N)(=O)=O)cc3)C2=O)c2ccccc21
(S) Cc1c(C(=O)N2CCN(C)CC2)cc(-c2ccccc2)n1-c1ccc(S(N)(=O)=O)cc1
Prompt line: # desc sort on Ki across 4 compounds # list labels per requested ordering
Response line: R, S, P, Q
(R: 318 nM, S: 135 nM, P: 39.1 nM, Q: 4.3 nM)

---

Record: compiled Ki on Carbonic anhydrase 9 (Homo sapiens, UniProt Q16790) from multiple reports.

Below are worked cases with known answers.
- chemical structure: "COc1ccc(/C=C2/SC(Nc3ccc(OS(N)(=O)=O)cc3)=NC2=O)cc1"
  target or system: "Carbonic anhydrase 9 (Homo sapiens, UniProt Q16790)"
  observed value: "0.0176 to 0.0733 µM"
- chemical structure: "Nc1nc(-c2ccc(NC(=O)c3ccc(C(=O)O)cc3)cc2)cn2c(=O)n(-c3ccccc3)nc12"
  target or system: "Carbonic anhydrase 9 (Homo sapiens, UniProt Q16790)"
  observed value: "> 100 µM"

The record that follows has no Ki shown yet.
Prompt line: What does the record list as Ki for "Cc1nn(C)c2nnc(Nc3ccc(S(=O)(=O)N4CCNCC4)cc3)nc12" ?
Response line: > 50 µM

---

pKi: −log10 of the molar value.
// read-out pKi, gathered for Carbonic anhydrase 9 (Homo sapiens, UniProt Q16790) from published studies
measurement kind: pKi

// below: answered compounds
- chemical structure: "NS(=O)(=O)OCc1ccccc1"
  target or system: "Carbonic anhydrase 9 (Homo sapiens, UniProt Q16790)"
  pKi: 7.85
- chemical structure: "COc1ccc(-c2c3n(c4c(=O)oc5cc(OC)c(O)cc5c24)CCc2cc(OS(=O)(=O)O)c(OC)cc2-3)cc1O"
  target or system: "Carbonic anhydrase 9 (Homo sapiens, UniProt Q16790)"
  pKi: 5.49
- chemical structure: "CCOc1ccc2c(c1)CCN=C2c1ccc(S(N)(=O)=O)cc1"
  target or system: "Carbonic anhydrase 9 (Homo sapiens, UniProt Q16790)"
  pKi: 8.14
- chemical structure: "O=c1[nH]c2cc(C(F)(F)F)ccc2c(=O)n1O"
  target or system: "Carbonic anhydrase 9 (Homo sapiens, UniProt Q16790)"
  pKi: 8.09
- chemical structure: "CC(=O)c1cc2ccccc2oc1=O"
  target or system: "Carbonic anhydrase 9 (Homo sapiens, UniProt Q16790)"
  pKi: 6.82
- chemical structure: "NS(=O)(=O)c1cn(CC(=O)Nc2ccc(Cl)cc2)ccc1=O"
  target or system: "Carbonic anhydrase 9 (Homo sapiens, UniProt Q16790)"
  pKi: 7.03
- chemical structure: "NS(=O)(=O)c1ccc(NC(=O)NNS(=O)(=O)c2ccc(Cl)c([N+](=O)[O-])c2)cc1"
  target or system: "Carbonic anhydrase 9 (Homo sapiens, UniProt Q16790)"
  pKi: 7.41
- chemical structure: "NS(=O)(=O)c1ccc(CCNC(=O)CN2C(=O)c3ccccc3C2=O)cc1"
  target or system: "Carbonic anhydrase 9 (Homo sapiens, UniProt Q16790)"
  pKi: 6.54
- chemical structure: "NS(=O)(=O)c1ccc(NC(=O)Nc2nc(Nc3ccc(Cl)cc3)nc(N3CCCCC3)n2)cc1"
  target or system: "Carbonic anhydrase 9 (Homo sapiens, UniProt Q16790)"
  pKi: 7.36
- chemical structure: "NS(=O)(=O)c1ccc(CNS(=O)(=O)[C@@H]2O[C@H](CO)[C@@H](O[C@@H]3O[C@H](CO)[C@H](O)[C@H](O)[C@H]3O)[C@H](O)[C@H]2O)cc1"
  target or system: "Carbonic anhydrase 9 (Homo sapiens, UniProt Q16790)"
  pKi: 6.97

(1) CC(C)NC(=O)Nc1ccc(S(N)(=O)=O)cc1
(2) CC(=O)OC[C@H]1O[C@@H](S(=O)(=O)Cc2cn(-c3ccc(S(N)(=O)=O)cc3)nn2)[C@H](OC(C)=O)[C@@H](OC(C)=O)[C@H]1OC(C)=O
Prompt line: Returns the identifier with the smallest measured pKi among 1 and 2 . Answer with the label corresponding to your selection.
Response line: 1

(P) Oc1ccc2ccc(=S)oc2c1
(Q) NS(=O)(=O)c1ccc(N/N=C/c2ccc(-n3nnc4ccccc43)cc2)cc1
Prompt line: Which entry shows the lesser value of pKi here, P or Q ? // return label of chosen record
Response line: P

---

pKi: −log10 of the molar value.
pKi for Carbonic anhydrase 9 (Homo sapiens, UniProt Q16790) - collated from the literature.
measurement kind: pKi

The examples below pair each entry with its known result.
- molecule: "NS(=O)(=O)c1ccc(C(=O)N2CCN(Cc3ccccc3)[C@H](CCO)C2)cc1"
  target or system: "Carbonic anhydrase 9 (Homo sapiens, UniProt Q16790)"
  pKi: 7.22
- molecule: "Cc1cc(C)[n+](CCc2ccccc2C)c(C)c1"
  target or system: "Carbonic anhydrase 9 (Homo sapiens, UniProt Q16790)"
  pKi: 6.08

(A) CC(=O)N1N=C(c2ccc(OS(N)(=O)=O)cc2)CC1c1c(Cl)cccc1Cl (stereo unspecified)
(B) N#Cc1ccc(/C=C/C(=O)Nc2ccc(S(N)(=O)=O)cc2)cc1
Prompt line: Hey, between A and B which has a smaller measured pKi? # respond with the chosen item's label
Response line: A

(A) NC(=O)c1cn(-c2ccc(S(N)(=O)=O)cc2)nc1-c1cccs1
(B) Cc1cc(=O)oc2cc(NC(=O)NS(=O)(=O)c3ccc(F)cc3)ccc12
Prompt line: From the items above, decide which of A and B has the lower pKi reading. Give the chosen item's label as your response.
Response line: B

---

Reported Ki against UniProt Q16790, gathered from multiple publications, appears below.

- compound: "Nc1nc(-c2cccc(O)c2)cn2c(=O)n(-c3ccccc3)nc12"
  Ki: "> 100 µM"
- compound: "CC(C(=O)NCCOc1ccc2ccc(=O)oc2c1)c1ccc(-c2ccccc2)c(F)c1 (racemic)"
  Ki: "> 0.1 µM"

Now turn to the next compound.
Prompt line: Which value of Ki has been reported for "Cc1ccc(-c2cc(C(=O)O)[nH]n2)cc1" in the records?
Response line: > 50 µM

---

Reported Ki on Carbonic anhydrase 9 (Homo sapiens, UniProt Q16790) for assorted molecules, compiled from publications.
measurement kind: Ki (nM)

Worked cases, answers included:
- chemical structure: "NS(=O)(=O)c1ccc(C(=O)N2CCC(c3ccccc3)CC2)cc1"
  unit abbrev: "nM"
  Ki: 3.3
- chemical structure: "O=C1N=C(Nc2ccc(S(=O)(=O)Nc3ncccn3)cc2)S/C1=C/c1coc2ccccc2c1=O"
  unit abbrev: "nM"
  Ki: 24.7
- chemical structure: "CCOc1ccc(S(=O)(=O)N2CCN(C)CC2)cc1-c1nnc2c(n1)c(C)nn2-c1ccc(S(=O)(=O)N2CCN(C)CC2)c(Cl)c1"
  unit abbrev: "nM"
  Ki: 417

(a) Nc1nc(SCC(=O)Nc2nc3ccc(S(N)(=O)=O)cc3s2)nc2[nH]ncc12
(b) O=S1(=O)C=Cc2cc(O)ccc2O1
(c) O=c1ccc2ccc(OCc3cn(-c4cccc(Br)c4)nn3)cc2o1
(d) CC(=O)OC[C@H]1O[C@@H](S(=O)(=O)Cc2nnn(-c3ccc(S(N)(=O)=O)cc3)c2I)[C@H](OC(C)=O)[C@@H](OC(C)=O)[C@@H]1O[C@H]1O[C@H](COC(C)=O)[C@@H](OC(C)=O)[C@H](OC(C)=O)[C@H]1OC(C)=O
(e) COc1cc(C(=O)O)cc(OC)c1O
Prompt line: // smallest Ki at index 0, largest at the end In plain terms: list the labels in the order you were asked to.
Response line: c, d, a, b, e
(c: 27.5 nM, d: 99.6 nM, a: 172 nM, b: 300 nM, e: 8200 nM)

(A) NNc1ccc(S(N)(=O)=O)cc1F
(B) NS(=O)(=O)c1ccc(-n2cc(CS[C@@H]3O[C@H](CO)[C@@H](O)[C@H](O)[C@H]3O)nn2)cc1
Prompt line: Parameter metric = Ki. Return the lower-valued option from A and B . # respond with the chosen item's label
Response line: A
(A: 136 nM, B: 257 nM)

(a) Cc1nn(Cc2ccccc2)c2c1c(=O)oc1ccccc12
(b) CC1=NN(c2ccc(C#N)cc2)C(=O)/C1=N/Nc1ccc(S(N)(=O)=O)cc1
(c) Nc1cc(=O)[nH]c(SCC(=O)Nc2nc3ccc(S(N)(=O)=O)cc3s2)n1
Prompt line: Falling order of Ki, please. State the ranking by listing the labels in the requested order.
Response line: a, c, b
(a: 371 nM, c: 253 nM, b: 3.2 nM)

(1) CCCCC(=O)OC[C@H]1O[C@@H](n2cc(-c3cccc(S(N)(=O)=O)c3)nn2)[C@H](OC(=O)CCCC)[C@@H](OC(=O)CCCC)[C@H]1OC(=O)CCCC
(2) CN(C)c1nc(NC(=O)Nc2ccc(S(N)(=O)=O)cc2)nc(Nc2ccccc2)n1
Prompt line: Higher Ki: 1 or 2 ? Reply briefly: the label of your chosen item.
Response line: 1
